PROTOCOL DESCRIPTION: budding yeast growth changes without added modifier – OD600, strain BY4716, 24 h, basal condition, primary screen (AID 1173)
CONDITION NOTES: S. cerevisiae BY4716 growth, OD600, 24 h, called active from +8 up or from −8 down
The source made the active and inactive calls.
Outcome codes: t = active, f = inactive

COMPOUND: O=C1C2C=CC(C(O)c3ccc(Br)cc3)N(n3cnnc3)C2C(=O)N1Cc1ccccc1 (configuration not stated)
QUALITATIVE LABEL: t
//
COMPOUND: CC(C)OC(=O)C1=CCC(c2cccc(Cl)c2)O1 (configuration not stated)
QUALITATIVE LABEL: f
//
COMPOUND: O=P(NCC1(CC2(c3ccccc3)CO2)CC1)(c1ccccc1)c1ccccc1 (configuration not stated)
QUALITATIVE LABEL: f
//
COMPOUND: CC(C)C(=C=CC[C@H](O)c1ccccc1OCCO)CCO
QUALITATIVE LABEL: f
//
COMPOUND: COCCOC(=O)N1C(=O)[C@@]2(c3cc(C#CCCO)ccc31)[C@H](C(=O)NC[C@H](O)c1ccccc1)[C@H]1C(=O)O[C@H](c3ccccc3)[C@H](c3ccccc3)N1[C@@H]2c1ccc(OCCO)cc1
QUALITATIVE LABEL: f
//
COMPOUND: CCOC(=O)C1=CC[C@@H](c2cccc(Cl)c2)N(S(=O)(=O)c2ccc(C)cc2)[C@H]1c1ccc(C#N)cc1
QUALITATIVE LABEL: f
//
COMPOUND: COCCOC(=O)N1C(=O)[C@@]2(c3cc(C#Cc4ccc(OC)cc4)ccc31)[C@H](c1ccc(OCCO)cc1)N1[C@H](c3ccccc3)[C@H](c3ccccc3)OC(=O)[C@H]1[C@@H]2C(=O)N1CCc2cc(OC)c(OC)cc2C1
QUALITATIVE LABEL: f

* * *

PROTOCOL DESCRIPTION: ATP-based viability of Huh7 replicon cells – cell-based, CellTiter-Glo luminescence, basal, 48 h, cytotoxicity control for HCV replication inhibitor project, primary screen (AID 1143);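 further: Huh7 hepatoma cells carrying a hepatitis C replication reporter with no stimulus; test concentration not given here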
CONDITION NOTES: higher = more signal, called active from +8 up or from −8 down
# label = true if z-score >= -3 else false

COMPOUND: [N-]=[N+]=Nc1ccccc1[C@@H]1OC(c2ccc(OCCCO)cc2)=N[C@]1(CCS(=O)(=O)c1ccccc1)C(=O)N1CCCCC1
QUALITATIVE LABEL: true
//
COMPOUND: C=C(COC)C(=O)CC[C@@H](OC(=O)c1ccccc1-c1ccccc1C(=O)O)c1ccc(CO)o1
QUALITATIVE LABEL: false
//
COMPOUND: COC(=O)[C@@]1(Cc2ccc(F)cc2)[C@H]2c3cc(C(=O)N4CCCC4)n(CCc4ccc(OC)c(Br)c4)c3C[C@H]2CN1C(=O)c1ccccc1
QUALITATIVE LABEL: false
//
COMPOUND: [N-]=[N+]=NCc1ccccc1C[C@@]1(C(=O)NCc2ccccc2)N=C(c2ccc(OCCCO)cc2)O[C@@H]1c1ccccc1CN=[N+]=[N-]
QUALITATIVE LABEL: false
//
COMPOUND: C=CCN1C(=O)[C@]2(Cc3ccccc31)N=C(c1ccc(OCCCO)cc1)O[C@@H]2c1ccccc1
QUALITATIVE LABEL: false
//
COMPOUND: O=C(NCC(O)CO)[C@@]1(Cc2ccccc2)N=C(c2ccc(OCCCO)cc2)O[C@H]1c1ccccc1 (stereo partly drawn)
QUALITATIVE LABEL: true
//
COMPOUND: C=C(/C(=C/C[C@@H](OC(C)=O)c1ccc(CO)o1)c1cnc2ccccc2c1)C(C)C
QUALITATIVE LABEL: true
//
COMPOUND: C=C(CCCC)C(=O)CC[C@H](OC(=O)c1ccccc1-c1ccccc1C(=O)O)c1ccc(CO)o1
QUALITATIVE LABEL: true

All values here come from PubChem BioAssay.
